system: Streptococcus; assay: GAS UMAA2166 growth inhibition – luminescence, BacTiterGlo, counter-screen for streptokinase expression inhibitor project, dose response (AID 1915); format: functional, organism-based;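 also: potency for reduction of bacterial viability or growth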
Calls of active or inactive are those of the source.
PROPERTY_MEASURED: EC50

Worked examples follow.
Given the compound Nc1nc(-c2ccccc2)c(N=Nc2cccc3ccccc23)s1 , write its reported EC50.
> 150 µM (not active)

Given the compound CCCCCCCCOC(=O)c1c(CSC(=N)N)n(C)c2cc(Br)c(OC(C)=O)cc12 , write its reported EC50.
8.01 µM (active)

Given the compound COc1ccccc1C(=O)Nc1nnc(SCC(=O)NCC2CCCO2)s1 (stereo unspecified) , write its reported EC50.
> 150 µM (not active)

Given the compound CCCCC(=O)NC(=S)NNC(=O)CCc1ccccc1 , write its reported EC50.
8.5 µM (active)

Given the compound Cc1cc(Cl)ccc1N=C(S)NCCC(c1ccccc1)c1ccccc1 , write its reported EC50.
30.3 µM (active)

From here, focus on the item given below.
Given the compound Cc1cccc2sc(NNC(=O)c3ccc(S(=O)(=O)N4CCCC(C)C4)cc3)nc12 (stereo unspecified) , write its reported EC50.
8.56 µM (active)

###

Target: Caspase-6 (Homo sapiens)
Sequence (P55212 whole entry): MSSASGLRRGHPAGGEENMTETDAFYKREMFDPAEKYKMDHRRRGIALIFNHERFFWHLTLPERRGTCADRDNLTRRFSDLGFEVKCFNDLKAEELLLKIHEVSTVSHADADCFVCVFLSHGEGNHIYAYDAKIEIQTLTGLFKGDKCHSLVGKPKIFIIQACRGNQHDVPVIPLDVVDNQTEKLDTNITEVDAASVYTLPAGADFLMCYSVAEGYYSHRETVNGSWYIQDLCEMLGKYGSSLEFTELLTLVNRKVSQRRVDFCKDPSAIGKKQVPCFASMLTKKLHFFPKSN
Assay: inhibition of CASP6 peptide cleavage – biochemical, VEID-R110 fluorescence, cherry-pick, dose response (AID 720632)
Calls of active or inactive are those of the source.
PROPERTY_MEASURED: AC50

Worked examples follow.
Given the compound CCOc1cc(/C=C2\C(=O)NN(c3ccccc3)C2=O)cc([N+](=O)[O-])c1O , write its reported AC50.
36.8 µM (active)

Given the compound O=c1c(O)c(-c2cc(O)c(O)c(O)c2)oc2cc(O)cc(O)c12 , write its reported AC50.
0.461 µM (active)

Given the compound O=C(Nc1c(-c2ccc3c(c2)OCO3)[nH][nH]c1=O)c1ccccc1 , write its reported AC50.
47.5 µM (active)

Given the compound O=C1Cc2ccccc2C(=O)N1 , write its reported AC50.
1.22 µM (active)

Given the compound Cc1c(C(=O)N2CCCC2)oc2ccc(Br)cc12 , write its reported AC50.
23.5 µM (active)

Given the compound CCCc1nc2c(=O)n(C)c(=O)nc-2n(C)n1 , write its reported AC50.
0.0636 µM (active)

Given the compound CCOC(=O)c1sc(NC(=O)C2C3C=CC(C3)C2C(=O)O)nc1C (stereo not drawn) , write its reported AC50.
11.1 µM (active)

From here, focus on the item given below.
Given the compound CC1=NN(c2ccc(Cl)c(C(=O)O)c2)C(=O)C1 , write its reported AC50.
1.16 µM (active)

###

Biological target: Corticotropin-releasing factor receptor 2/Corticotropin-releasing factor-binding protein (Homo sapiens, UniProt P24387+Q13324)
Sequence (Q13324 whole entry): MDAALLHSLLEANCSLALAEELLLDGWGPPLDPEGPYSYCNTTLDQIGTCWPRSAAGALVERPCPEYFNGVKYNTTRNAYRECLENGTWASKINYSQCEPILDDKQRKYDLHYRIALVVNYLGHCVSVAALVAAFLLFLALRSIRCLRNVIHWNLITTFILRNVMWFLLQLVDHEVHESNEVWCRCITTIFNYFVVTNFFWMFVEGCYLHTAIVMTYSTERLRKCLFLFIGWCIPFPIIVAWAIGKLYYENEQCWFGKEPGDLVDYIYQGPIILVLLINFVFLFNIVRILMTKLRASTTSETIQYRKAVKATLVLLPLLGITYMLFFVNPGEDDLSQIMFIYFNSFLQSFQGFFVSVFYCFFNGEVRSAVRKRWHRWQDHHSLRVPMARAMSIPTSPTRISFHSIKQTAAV
Sequence (P24387 whole entry): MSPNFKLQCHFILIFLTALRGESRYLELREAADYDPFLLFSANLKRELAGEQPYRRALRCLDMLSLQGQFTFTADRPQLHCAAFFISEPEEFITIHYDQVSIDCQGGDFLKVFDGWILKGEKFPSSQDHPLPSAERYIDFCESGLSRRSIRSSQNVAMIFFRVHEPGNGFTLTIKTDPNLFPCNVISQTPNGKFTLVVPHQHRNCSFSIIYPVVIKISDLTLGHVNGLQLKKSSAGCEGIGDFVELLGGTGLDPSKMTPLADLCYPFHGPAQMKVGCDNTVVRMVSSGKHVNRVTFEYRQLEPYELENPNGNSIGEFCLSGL
Assay: activators of CRF receptor 2 with binding protein – uHTS hits, confirmation (AID 602473)
Type: functional
Conditions: read-out: EC50_Mean
Active and inactive are the calls of the source.
Reply using exactly one outcome from YES (active), NO (inactive)

As a guide, the following entries are already answered.
Recorded test call requested for CC(C)NC(=O)N(C)C[C@H]1OCc2cnnn2CCCC(=O)N([C@H](C)CO)C[C@H]1C
NO

Recorded test call requested for Cc1nc2ccccc2n1CC(O)COC1CCCCC1 (configuration not stated)
NO

Recorded test call requested for COc1ccc(/C=C/C(=O)N(C)CC(=O)Nc2cccc(F)c2)cc1S(=O)(=O)N1CCCCC1
NO

Recorded test call requested for CC(CCc1ccco1)NC(=O)c1cccc2c1C(=O)N(C1CCCCC1)C2 (configuration not stated)
NO

---
Recorded test call requested for COC(=O)c1cc(OC)c(OC)cc1NC(=O)c1c(-c2ccccc2Cl)noc1C
NO

Recorded test call requested for CCOc1ccc(NS(=O)(=O)c2ccc(C(=O)N3CC(C)OC(C)C3)cc2)cc1 (configuration not stated)
YES

Recorded test call requested for CC(=O)N1CCOc2ccc(S(=O)(=O)N3CCC(C(=O)NCc4ccc(C)cc4)CC3)cc21
NO

Cited source: ChEMBL document CHEMBL1201862
